- Experimental target: T1, ADI-67450
- T1 construct: anti-CD3 antibody made in CHO cells, captured by anti-human Fc
- T1 sequence (VH, as listed by the source limits assumed, chain 1 of 2): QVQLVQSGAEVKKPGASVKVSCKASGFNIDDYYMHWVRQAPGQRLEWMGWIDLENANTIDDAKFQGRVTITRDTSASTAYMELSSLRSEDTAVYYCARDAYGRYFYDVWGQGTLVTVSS
- T1 sequence (VL, as listed by the source limits assumed, chain 2 of 2): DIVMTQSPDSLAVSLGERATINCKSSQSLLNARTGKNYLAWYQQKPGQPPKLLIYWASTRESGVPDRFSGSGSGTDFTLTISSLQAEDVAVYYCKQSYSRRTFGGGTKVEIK
- Experiment: SPR Carterra avidity, yeast anti-ID
Reported endpoint: pKd
Lab note: report pKd as minus log10 of the concentration in molar units, number only.

Binder	pKd
ADI-34137 (antibody, V domains shown, anti-ID IgG) VH: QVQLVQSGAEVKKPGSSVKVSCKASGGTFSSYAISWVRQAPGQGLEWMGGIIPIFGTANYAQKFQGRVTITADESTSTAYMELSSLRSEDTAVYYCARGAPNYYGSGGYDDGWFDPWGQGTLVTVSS VL: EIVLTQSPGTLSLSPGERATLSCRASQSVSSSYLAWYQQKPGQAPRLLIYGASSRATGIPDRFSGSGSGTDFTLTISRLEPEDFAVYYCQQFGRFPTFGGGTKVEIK	9.04
ADI-34134 IgG (antibody, V domains shown) VH: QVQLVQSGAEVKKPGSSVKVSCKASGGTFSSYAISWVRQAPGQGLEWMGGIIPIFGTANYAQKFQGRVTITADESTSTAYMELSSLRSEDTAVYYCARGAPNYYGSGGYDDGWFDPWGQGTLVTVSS VL: EIVLTQSPGTLSLSPGERATLSCRASQSVSSDYLAWYQQKPGQAPRLLIYGASSRATGIPDRFSGSGSGTDFTLTISRLEPEDFAVYYCQQFGRVPTFGGGTKVEIK	7.92
ADI-34135 (antibody, V domains shown, anti-ID IgG) VH: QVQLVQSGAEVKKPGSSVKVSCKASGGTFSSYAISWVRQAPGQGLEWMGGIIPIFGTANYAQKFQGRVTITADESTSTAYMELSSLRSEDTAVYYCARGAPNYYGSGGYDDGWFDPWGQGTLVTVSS VL: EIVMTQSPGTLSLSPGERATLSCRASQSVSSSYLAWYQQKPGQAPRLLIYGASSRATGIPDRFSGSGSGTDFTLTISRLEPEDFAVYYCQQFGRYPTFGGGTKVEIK	9.20

Moving on to the next binder.
stdin: So what's the measured pKd for this one? ADI-30242 (antibody, V domains shown, anti-ID IgG) VH: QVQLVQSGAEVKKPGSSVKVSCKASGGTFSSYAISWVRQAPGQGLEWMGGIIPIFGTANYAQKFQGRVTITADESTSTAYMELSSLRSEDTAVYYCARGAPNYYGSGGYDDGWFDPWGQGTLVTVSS VL: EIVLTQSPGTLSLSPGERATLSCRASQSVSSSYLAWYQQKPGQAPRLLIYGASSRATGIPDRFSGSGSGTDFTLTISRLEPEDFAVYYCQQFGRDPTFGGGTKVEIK
stdout: 7.25

The measured values listed here are drawn from patent US20250019439A1.
